Tested on: E. coli TG1
TEST METHOD NOTES: Monospecies bacterial biofilm inhibition, static peg assay
Type: cell-based, Escherichia coli
RECORDED CONDITIONS: Escherichia coli, TG1, E. coli TG1, 25°C; read-out: IC50 (planktonic growth)
OBSERVATION TYPE: pIC50
Scale: negative log10 of molar concentration, which is what pIC50 denotes.

Previously resolved entries follow.
CCCCCCCCn1c(-c2ccc(Br)cc2)cnc1NCC(C)C [Compound 8c]    3.82
CCCCCCCCn1c(-c2ccc(Cl)cc2)cnc1NCC(C)C [Compound 8b]    4.04
CCCCCCCCn1c(-c2ccc(Cl)c(Cl)c2)cnc1NCC(C)C [Compound 8d]    3.59

Qu. Field request: pIC50 | item: CCCCCCCCn1c(-c2ccccc2)cnc1NCC(C)C [Compound 8a]
Ans. 4.29

Qu. Field request: pIC50 | item: CCCCCCCCn1c(-c2ccccc2)cnc1NC1CCCC1 [Compound 8e]
Ans. 3.72

Every entry's value here was drawn from paper PMC5075052.
